IC50, ROCK2 (Homo sapiens), per-entry values.

# example entries with known answers
{"compound": "O=C(NC1CC2(C1)CC(c1n[nH]c(=O)c3ccccc13)C2)c1cnn2cc(OC3CC(F)(F)C3)ccc12 (stereo not shown)", "measuredTarget": "ROCK2 (Homo sapiens)", "reportedResult": "0.2 to 2 nM"}
{"compound": "N#Cc1c(O)ccc2c(C(=O)NC3CC4(C3)CC(c3n[nH]c(=O)c5ccccc35)C4)cnn12 (stereo not shown)", "measuredTarget": "ROCK2 (Homo sapiens)", "reportedResult": "15.1 to 100 nM"}
{"compound": "[H][C@]1(c2n[nH]c(=O)c3ccccc32)C[C@]2(C[C@@H](NC(=O)c3cnc4ccc(F)c(C)n34)C2)C1 (stereo partly shown)", "measuredTarget": "ROCK2 (Homo sapiens)", "reportedResult": "15.1 to 100 nM"}
{"compound": "CC(C)(C)OC(=O)NCCn1cc(C(=O)NC2CC3(C2)CC(c2n[nH]c(=O)c4ccccc24)C3)cn1 (stereo not shown)", "measuredTarget": "ROCK2 (Homo sapiens)", "reportedResult": "100 to 2100 nM"}
{"compound": "[H][C@]1(c2n[nH]c(=O)c3ccccc32)C[C@]2(C[C@@H](NC(=O)c3cnc4ccc(C(F)(F)F)cn34)C2)C1 (stereo partly shown)", "measuredTarget": "ROCK2 (Homo sapiens)", "reportedResult": "5.1 to 15 nM"}

Write down the reported IC50 of O=C(NC1CC2(C1)CC(c1n[nH]c(=O)c3ccccc13)C2)c1cnn2cc(C3CC3)ccc12 (stereo not shown) , test system: ROCK2 (Homo sapiens).
Sequence (O75116 whole entry, species assumed): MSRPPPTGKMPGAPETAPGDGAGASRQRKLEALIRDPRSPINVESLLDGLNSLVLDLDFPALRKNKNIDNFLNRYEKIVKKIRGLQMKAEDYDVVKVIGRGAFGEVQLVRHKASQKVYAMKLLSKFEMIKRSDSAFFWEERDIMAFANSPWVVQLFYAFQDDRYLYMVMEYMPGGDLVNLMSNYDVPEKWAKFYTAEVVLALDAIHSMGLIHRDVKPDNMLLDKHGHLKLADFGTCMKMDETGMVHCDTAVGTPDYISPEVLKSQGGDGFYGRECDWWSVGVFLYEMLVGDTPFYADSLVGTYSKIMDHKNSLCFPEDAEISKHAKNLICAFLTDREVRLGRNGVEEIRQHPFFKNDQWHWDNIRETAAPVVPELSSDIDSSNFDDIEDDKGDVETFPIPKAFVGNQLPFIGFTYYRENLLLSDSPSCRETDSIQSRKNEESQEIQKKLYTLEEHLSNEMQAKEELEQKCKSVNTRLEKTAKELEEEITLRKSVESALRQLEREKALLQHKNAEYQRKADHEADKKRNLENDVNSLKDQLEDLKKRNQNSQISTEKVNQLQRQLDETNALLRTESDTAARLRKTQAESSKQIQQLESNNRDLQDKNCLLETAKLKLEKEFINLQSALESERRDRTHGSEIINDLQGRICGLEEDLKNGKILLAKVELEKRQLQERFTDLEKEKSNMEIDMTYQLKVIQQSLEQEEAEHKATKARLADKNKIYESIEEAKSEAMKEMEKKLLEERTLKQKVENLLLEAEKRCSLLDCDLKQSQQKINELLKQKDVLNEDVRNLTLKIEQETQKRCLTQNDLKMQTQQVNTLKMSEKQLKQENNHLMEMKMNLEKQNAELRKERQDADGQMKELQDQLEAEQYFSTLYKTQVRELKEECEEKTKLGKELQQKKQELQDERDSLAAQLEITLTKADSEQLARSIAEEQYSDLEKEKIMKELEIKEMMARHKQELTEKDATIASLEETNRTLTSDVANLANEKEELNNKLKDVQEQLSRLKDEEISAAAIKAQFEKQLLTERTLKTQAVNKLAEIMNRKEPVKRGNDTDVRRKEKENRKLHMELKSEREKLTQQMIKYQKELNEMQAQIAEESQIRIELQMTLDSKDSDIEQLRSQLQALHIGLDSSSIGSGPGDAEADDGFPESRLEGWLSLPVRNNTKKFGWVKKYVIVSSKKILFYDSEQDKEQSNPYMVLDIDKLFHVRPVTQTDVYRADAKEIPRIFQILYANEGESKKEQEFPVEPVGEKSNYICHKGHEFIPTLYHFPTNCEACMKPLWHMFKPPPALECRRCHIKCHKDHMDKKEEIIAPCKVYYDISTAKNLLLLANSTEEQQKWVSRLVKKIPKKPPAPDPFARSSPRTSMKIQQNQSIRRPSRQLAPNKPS
0.2 to 2 nM

Write down the reported IC50 of [H][C@]1(c2n[nH]c(=O)c3ccccc32)C[C@]2(C[C@@H](NC(=O)c3cnc4cc(-c5ccccc5)ccn34)C2)C1 (stereo partly shown) , test system: ROCK2 (Homo sapiens).
0.2 to 2 nM

* * *

IC50, ROCK2 (Homo sapiens), per-entry values.

# example entries with known answers
{"molecule": "[H][C@]1(c2n[nH]c(=O)c3ccccc32)C[C@]2(C[C@@H](NC(=O)c3cn(C)c4ccccc34)C2)C1 (stereo partly drawn) [Example 364]", "reportedResult": "5.1 to 15 nM"}
{"molecule": "Cn1cc(-c2ccc3c(c2)CN(C(=O)NC2CC4(C2)CC(c2n[nH]c(=O)c5ccccc25)C4)C3)c(C(F)(F)F)n1 (stereo not drawn) [Example 248]", "reportedResult": "5.1 to 15 nM"}
{"molecule": "O=C(NC1CC2(C1)CC(c1n[nH]c(=O)c3ccccc13)C2)c1cnn2cc(OCC(O)C(F)(F)F)ccc12 (stereo not drawn) [Example 107]", "reportedResult": "0.2 to 2 nM"}
{"molecule": "[H][C@]1(c2n[nH]c(=O)c3ccccc32)C[C@]2(C[C@@H](NC(=O)c3cnc4cc(F)ccn34)C2)C1 (stereo partly drawn) [Example 387]", "reportedResult": "2.01 to 5 nM"}
{"molecule": "[H][C@]1(c2n[nH]c(=O)c3ccccc32)C[C@]2(C[C@@H](NC(=O)c3ccc(-c4cn[nH]c4)c(C)c3)C2)C1 (stereo partly drawn) [Example 418]", "reportedResult": "0.2 to 2 nM"}

Write down the reported IC50 of Cc1nn(C)c(C)c1-c1ccc(NC(=O)NC2CC3(C2)CC(c2n[nH]c(=O)c4ccccc24)C3)cc1 (stereo not drawn) [Example 233] , test system: ROCK2 (Homo sapiens).
5.1 to 15 nM

Write down the reported IC50 of COc1ccc2c(C(=O)NC3CC4(C3)CC(c3n[nH]c(=O)c5ccccc35)C4)nn(CC(C)(C)O)c2c1 (stereo not drawn) [Example 62] , test system: ROCK2 (Homo sapiens).
0.2 to 2 nM
